- Test system: T2 cells
- protocol-notes: LDH release assay, killing of peptide-loaded T2 target cells by CD8+ T cells
- Format: cell-based, human
- experimental-conditions: effector-to-target ratio 1:1; target T2 loaded with TLISSLMPI; 4 h
measure: Killing efficiency

Recorded results for 5 sequences are shown here.
• TLISSLMPV = 8.56%
• TLISSLMPL = 8.23%
• TMISSLMPV = 9.32%
• TMISSLMPL = 9.12%
• TLISSLMPI [tumor antigen peptide from CACNA1H mutation, position 1428 arginine to methionine] = 7.96%

Here's the next entry for you.
Request: # Killing efficiency lookup, item TMISSLMPI
Result: 8.33%

---

Fold (tested/wild-type) listing for selected sequences.
- System: CD8+ T cells
- protocol-notes: ELISPOTs detection of IFN-γ secretion by peptide-specific CD8+ T cells
- Type: cell-based, human
- experimental-conditions: ratio of spot numbers; >2 immunogenic
# answer = number (no unit)

- TMISSLMPI: 11.88
- TLISSLMPL: 8.57
- TLISSLMPI [tumor antigen peptide from CACNA1H mutation, position 1428 arginine to methionine]: 9.27

Request: # Fold (tested/wild-type) lookup, item TLISSLMPV
Result: 7.93

Request: # Fold (tested/wild-type) lookup, item TMISSLMPL
Result: 8.67

Request: # Fold (tested/wild-type) lookup, item TMISSLMPV
Result: 9.86

---

- System: T2 cells
- protocol-notes: LDH release assay, killing of peptide-loaded T2 target cells by CD8+ T cells
- Assay type: cell-based, human
- experimental-conditions: effector-to-target ratio 10:1; target T2 loaded with TLISSLMPI; 4 h
Killing efficiency listing for selected sequences.
Report the value in % with no unit label.

Recorded results for 4 sequences are shown here.
• TLISSLMPL = 39.66
• TLISSLMPV = 43.82
• TLISSLMPI [tumor antigen peptide from CACNA1H mutation, position 1428 arginine to methionine] = 38.89
• TMISSLMPI = 41.16

Request: What Killing efficiency appears in the records for this sequence with T2 cells? TMISSLMPV
Result: 47.35

Request: What Killing efficiency appears in the records for this sequence with T2 cells? TMISSLMPL
Result: 45.23
